// provenance: patent US20160287696A1

tested on: cultured PBMCs of the allergic donors; assay: ELISPOT of IL-5 or IFNg production by cultured PBMCs of TG allergic donors in response to peptide; format: cell-based, human; details: Table 6; PP peptides recognized by T cells of grass allergic donors (n=20)
ENDPOINT_NAME: No of PP & Th+ peptides per NTGA
Write the number on its own, no unit after it.

Query: Entry under review: NTGA 62: Phl p wild type sequence, Table 2 (protein, Phleum Pratense) MRRLSLILLAAAALLAAAVSAEPGPAPKLSPDFYSQTCPRAERIIAEVVQSKQMANPTTAAGVLRVFFHDCFVSGCDASVLIAPTHYAKSEKDADINHSLPGDAFDAVVRSKLALELECPGVVSCADILAIASRVLVTMTGGPRYPVPLGRKDSLSSNPAAPDVELPHSNFTVGRIIELFTAKGFTVQEMVALSGAHTLGFSHCQEFASRIYNYRDKGGKPAPFDPSMNPTYAKGLQAACQDYQKDPTIAAFNDIMTPGKFDNMYYVNIERGLGLLSTDEDMWSDMRTKPFVQRYAANNTDFFEDFAKAIEKLSMYGVKTGADGEIRRRCDAFNSGPNIQ . Reported No of PP & Th+ peptides per NTGA?
Response: 0
